The reported measurements were obtained from patent US20230357364A1.

The reader will find reported Kd values listed item by item below.
# assay_system: SARS-CoV-2 RBD (RBD-2) (SARS-CoV-2)
# assay_details: SPR, Fc-captured IgG
Express your answer in nM, writing the number without its unit.

A selection of reference data follows.
binder	unit_text	Kd
L12.cP09D03 (antibody, V domains shown, human IgG1) VH: QVQLVQSGAEVKKPGASVKVSCKASGYIFSGYYTHWVRQAPGQGLEWMGWISPDSGGTNYAQKFQGRVTMTRDTSITTAYVELSGLRSDDTAVYYCARGPRYSGTYFDYWGQGTLVTVSS VL: QSVLTQPASVSGSPGQSITISCTGTSSDVGGYNYVSWYQQHPGKVPKLMIYDVSNRPSGVSNRFSGSKSGNTASLTISGLQAEDEADYYCSSYTSSSAQLFGGGTKLTVL	nM	147
L12.bP11A11 (antibody, V domains shown, human IgG1) VH: QVQLVQSGAEVKKPGASVKVSCKASGYTFTGYYMHWVRQAPGQGLEWMGWISPNSGGTNYAQKFQGWVTMTRDTSVSTAYMELSRLRFDDTAVYYCATESWVYGSGSYSSGAFDIWGQGTMVTVSS VL: QSVLTQPPSASGSPGQSVTISCTGTSSDVGGYDYVSWYQQHPGKAPKLMIYEVSKRPSGVPDRFSGSKSGNTASLTVPGLQAEDEADYYCTSYAGSNNFVFGGGTKLIVL	nM	170

Incoming: Consider the binder L12.cP08A09 (antibody, V domains shown, human IgG1) VH: QVQLVQSGAEVKKPGASVKVSCKASGYIYSGYYMHWVRQAPGQGLEWMGWISPDSGGTNYAQRFQGRVTMTRDTSTTTAYMELSRLRSDDTAVYYCARGPRYSGTYFDYWGQGTLVTVSS VL: QSALTQPASVSGSPGQSITISCTGTSSDVGGYNYVSWYQQHPDKAPKLMIYDVSNRPSGVSNRFSGSKSGNTASLTISGLQAEDEADYYCSSYTSGSTQVFGGGTKLTVL and give its measured Kd.
Outgoing: 175
